Origin of the recorded values: PubChem BioAssay (NCI)

tested on: ACHN renal; test: NCI tumour cell line growth inhibition, 48 h
MEASURED_PARAMETER: log10(TGI) (log10 of the value in µM)
Units before log transform: µM; reported quantity: TGI; transform: log10.

COc1ccc(/C=C2\C=C(c3ccccc3)N(CCc3ccccc3)C2=O)cc1OC | 1.15

*Q* State the recorded log10(TGI) for this entry: CCOC(=O)C(C(=S)SC)c1nn2c(=O)cc(C)nc2s1 (stereo not given)
*A* 1.58

*Q* State the recorded log10(TGI) for this entry: CC1OC(OC2C(OC3CCC4(C)C(CCC5(C)C4CC=C4C6CC(C)(C)CCC6(C(=O)O)CCC45C)C3(C)CO)OCC(O)C2O)C(O)C(O)C1O (stereo not given)
*A* 1.57

*Q* State the recorded log10(TGI) for this entry: CC1CCC2(CC1)NC1=C(CC(C)CC1)C1=C2CC(C)CC1 (stereo not given)
*A* 1.80

*Q* State the recorded log10(TGI) for this entry: CCCCCCCCC(=O)OCC(CS[As](C)C)OC(=O)CCCCCCCC (stereo not given)
*A* 0.56

----------
system: UACC-62 melanoma; test: NCI tumour cell line growth inhibition, 48 h
MEASURED_PARAMETER: TGI

O=C(Nc1n[nH]c2nnc(-c3cccnc3)cc12)C1CC1 | > 25 µM
COc1ccc2cc(-c3nc(N)nc(N4N=C(C)CC4(C)C)n3)c(=N)oc2c1 | 36.3 µM
Cc1nnc(N)nc1/C=C/c1c(O)ccc2ccccc12 | 85 µM
O=C1CSC(c2c[nH]c3ccccc23)N1c1ccccc1[N+](=O)[O-] (stereo not given) | > 100 µM

*Q* State the recorded TGI for this entry: C=CCOC(=O)C1=C(CCC[C@@H](C)O[Si](C)(C)C(C)(C)C)N=C(N)N2[C@H](CCO)CC[C@@H]12
*A* 33 µM

----------
system: RXF 393 renal; experiment: NCI tumour cell line growth inhibition, 48 h
MEASURED_PARAMETER: TGI (µM)
Record the value in µM, omitting the unit from your answer.

Examples with their reported TGI follow.
O=C(Nc1ccccc1)c1cc(S(=O)(=O)Nc2nc3ccccc3o2)c(SCc2ccccc2)cc1Cl | 47.7
Cc1ccccc1-n1c2nc(=O)n(C)c(=O)c-2nc2ccccc21 | 39.2
O=C1C(Cl)N(c2cccc([N+](=O)[O-])c2)C1c1c[nH]c2ccccc12 (stereo not drawn) | 27

*Q* State the recorded TGI for this entry: CC1OC(OC2C(OC3CCC4(C)C(CCC5(C)C4CC=C4C6CC(C)(C)CCC6(C(=O)O)CCC45C)C3(C)CO)OCC(O)C2O)C(O)C(O)C1O (stereo not drawn)
*A* 11.6

----------
system: MDA-MB-435
Bench note: report the call from active, inactive

COc1ccc(-n2ccnc2-c2cc(OC)c(OC)c(OC)c2)cc1 | active
CCCCCCCCn1ccc2cc(NC(=O)Cn3cc(CN4CCCCC4)nn3)ccc21 | inactive
O=C(Nc1ccc(/C=C/c2ccc(NC(=O)c3cc(S(=O)(=O)O)c4cccnc4c3O)cc2S(=O)(=O)O)c(S(=O)(=O)O)c1)c1cc(S(=O)(=O)O)c2cccnc2c1O | inactive
O=C1OCC2=C1C(c1ccc(Cl)c(Cl)c1)c1cc3c(cc1N2CCO)CCC3 (configuration not stated) | active
COc1ccc(/C=C2\C=C(c3ccccc3)N(CCc3ccccc3)C2=O)cc1OC | inactive
COc1cc(C(=O)Nc2cc(OC)c3ccn(C)c3c2)cc2c1C[C@]1(C)CC[C@@H](O)C(C)(C)[C@H]1O2 | inactive
CCOc1cccc(-c2nc(N)nc(Nc3ccccc3SSc3ccccc3Nc3nc(N)nc(-c4cccc(OCC)c4)n3)n2)c1 | inactive
NCC1OC(OC2C(CO)OC(OC3C(O)C(N)CC(N)C3OC3OC(CO)C(O)CC3N)C2O)C(N)C(O)C1OC1OC(CO)C(O)C(O)C1O (configuration not stated) | inactive
Clc1ccc(-c2cc(-c3ccccc3)nc(NCCNc3ccnc4cc(Cl)ccc34)n2)cc1 | inactive
COc1cc([C@@H]2C[C@H]2c2cc(SC)n[nH]2)cc(OC)c1OC | inactive

*Q* So what was the verdict on COC1=CC(c2ccc[nH]2)=N/C1=C\c1[nH]c(C)c(C(=O)CCCCC(=O)Oc2ccc3c(c2)CCC2C3CC[C@]3(C)[C@@H](O)CC[C@@H]23)c1C (some centres not stated) in this test?
*A* inactive

*Q* So what was the verdict on C[C@@H](Oc1ccc(C(=O)NS(=O)(=O)C(C)(C)C)cc1C(F)(F)F)c1ccc(Oc2ccccc2)cn1 in this test?
*A* inactive

*Q* So what was the verdict on COc1cc(/C=C2\C[C@H]3[C@@H]4CC=C5C[C@@H](O)CC[C@]5(C)[C@H]4CC[C@]3(C)[C@H]2O)ccc1OCCCn1ccnc1 in this test?
*A* inactive

*Q* So what was the verdict on COc1cc2c(cc1Nc1nc(Nc3cccc(F)c3C(N)=O)c3cc[nH]c3n1)N(C(=O)CN1CCN(C(C)C)CC1)CC2 in this test?
*A* inactive

*Q* So what was the verdict on O=C1c2ccccc2-c2c1c1ccccc1c(=O)n2CCCNCCCCNCCCN1C(=O)c2ccccc2C2C(=O)c3ccccc3C21 (configuration not stated) in this test?
*A* inactive

*Q* So what was the verdict on O=C(Nc1n[nH]c2nnc(-c3cccnc3)cc12)C1CC1 in this test?
*A* inactive

*Q* So what was the verdict on O=S(=O)(/N=c1/scc(-c2ccccc2)n1-c1ccccc1)c1ccc(N2N=C3c4ccccc4CC3C2c2cccs2)cc1 (configuration not stated) in this test?
*A* inactive

----------
system: HOP-92 NSCLC; test: NCI tumour cell line growth inhibition, 48 h
The following compounds are listed with their measured TGI values.
Record the value in µM, omitting the unit from your answer.

CSc1ccc(/C=C2\N=C(c3ccccc3)N(c3nc4cc(C)c(C)cc4s3)C2=O)cc1 | 73.3

*Q* Reported TGI for HOP-92 NSCLC, given COc1ccc2cc(-c3nc(N)nc(N4N=C(C)CC4(C)C)n3)c(=N)oc2c1 ?
*A* 60.5

*Q* Reported TGI for HOP-92 NSCLC, given COc1ccc(/C=C2\CCC/C(=C\c3ccc(O)c(CN4CCCCC4)c3)C2=O)cc1 ?
*A* 51.6

*Q* Reported TGI for HOP-92 NSCLC, given CC(=O)Oc1ccc(/C(=C(\C)c2ccc(Cl)cc2)c2ccc(OCCN3CCCCC3)cc2)cc1 ?
*A* 4.42

*Q* Reported TGI for HOP-92 NSCLC, given COc1cc(/C=C2\C[C@H]3[C@@H]4CC=C5C[C@@H](O)CC[C@]5(C)[C@H]4CC[C@]3(C)[C@H]2O)ccc1OCCCn1ccnc1 ?
*A* 12.5

*Q* Reported TGI for HOP-92 NSCLC, given O=c1oc2ccc(Br)cc2c(=O)n1-c1ccc(I)cc1F ?
*A* 0.492

*Q* Reported TGI for HOP-92 NSCLC, given c1ccc2cc(C[n+]3ccn(CCCCCCCCCCn4cc[n+](Cc5ccc6ccccc6c5)c4)c3)ccc2c1 ?
*A* 2.96

*Q* Reported TGI for HOP-92 NSCLC, given CC(C)(C)c1c2c(c(C(C)(C)C)c3c1OCN(Cc1ccccc1)C3)OCN(Cc1ccccc1)C2 ?
*A* 28.1

*Q* Reported TGI for HOP-92 NSCLC, given CN(Cc1cc(Cl)cc(Cl)c1O)Cc1c(O)ccc2ccccc12 ?
*A* 36.5

----------
test system: UACC-257 melanoma; assay: NCI tumour cell line growth inhibition, 48 h
MEASURED_PARAMETER: GI50

Examples with their reported GI50 follow.
Cc1cc(N(CCCl)CCCl)ccc1C=Nc1ccc2ccccc2c1 | 3.17 µM
O=C1c2ccccc2-c2c1c1ccccc1c(=O)n2CCCNCCCCNCCCN1C(=O)c2ccccc2C2C(=O)c3ccccc3C21 (stereo not given) | 3.86 µM

*Q* State the recorded GI50 for this entry: Cn1c(/C=C/[N+](=O)[O-])cc2ccccc21
*A* 2.11 µM

*Q* State the recorded GI50 for this entry: O=C(Nc1ccccc1)c1cc(S(=O)(=O)Nc2nc3ccccc3o2)c(SCc2ccccc2)cc1Cl
*A* 19.6 µM

*Q* State the recorded GI50 for this entry: CCCCCCCCCCCCOC1C(CNC(=O)C2OC3OC(C)(C)OC3C2NC(=O)Nc2ccc(CC(=O)NC(Cc3ccccc3)C(=O)O)cc2)OC2OC(C)(C)OC21 (stereo not given)
*A* > 25 µM

----------
system: K-562 leukemia; assay: NCI tumour cell line growth inhibition, 48 h
MEASURED_PARAMETER: TGI

Examples with their reported TGI follow.
CCOC(=O)C(NC(=O)c1ccccc1)(Nc1ccc(Cl)cc1C(F)(F)F)C(F)(F)F (stereo not drawn) | > 26.7 µM
CC1=CC(=O)CC(C)(C)C1/C=C/C(C)=C/C=C/C(C)=C/C=C/C=C(C)/C=C/C=C(C)/C=C/C1=C(C)CC(O)CC1(C)C (stereo not drawn) | 27.1 µM

*Q* State the recorded TGI for this entry: COc1ccc(/C=C/C(=O)c2ccc(OC)c(OC)c2)cc1O
*A* > 100 µM
